- TESTED ON: T1, human E-selectin extracellular domain with 10 His purification tail (human, UniProt P16581 22-556)
- T1 construct: also called soluable human E-selectin extracellular domain; rhE-Selectin
- T1 sequence: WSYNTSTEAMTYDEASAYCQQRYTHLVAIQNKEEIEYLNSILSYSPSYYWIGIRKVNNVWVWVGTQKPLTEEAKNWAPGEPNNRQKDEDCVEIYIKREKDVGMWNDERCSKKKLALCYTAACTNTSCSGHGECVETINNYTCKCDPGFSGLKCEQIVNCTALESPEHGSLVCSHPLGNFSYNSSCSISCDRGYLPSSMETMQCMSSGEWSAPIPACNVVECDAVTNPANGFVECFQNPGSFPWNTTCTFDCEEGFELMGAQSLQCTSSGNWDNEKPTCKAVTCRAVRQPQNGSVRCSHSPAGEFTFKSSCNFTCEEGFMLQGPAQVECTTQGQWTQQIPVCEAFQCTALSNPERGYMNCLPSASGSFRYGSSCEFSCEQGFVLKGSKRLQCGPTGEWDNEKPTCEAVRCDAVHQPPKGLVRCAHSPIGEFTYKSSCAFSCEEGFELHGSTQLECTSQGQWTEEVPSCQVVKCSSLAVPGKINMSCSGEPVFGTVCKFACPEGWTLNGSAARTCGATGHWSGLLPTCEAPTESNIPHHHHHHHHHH
- TEST PROTOCOL: SPR, antibody captured, E-selectin analyte
- Procedure: All flow cells were blocked with 1M Ethanolamine-HCl (ETH) for 7 minutes at 10 μL/minute. Final immobilization level of the capture antibody was approximately 10,000 resonance units (RU). […] This was done by first binding the antibody to immobilized anti-human IgG. After antibody capture, dilutions of the E-selectin proteins were flowed over and the association rate constant (ka), disassociation rate constant (kd), t½, and KD values were determined for binding to human and cynomolgus (Table 26).
pKd: −log10 of the molar value.
Item-by-item account of pKd
VALUE KIND: pKd

BINDER | VALUE KIND | DATA VALUE
optimized anti-E-selectin antibody 1448 (antibody, human IgG1, kappa, V domains shown, effector-null human IgG1, kappa) VH: EVQLVESGGGLVQPGGSLRLSCAASGYAIRSAYMHWVRQAPGKGLEWVARIDPANGNTIYVDSVKERFTISADNAKNSAYLQMNSLRAEDTAVYYCAMDLYSTSEYWGQGTLVTVSS VL: DIQMTQSPSSLSASVGDRVTITCKTSQNIERYLNWYQQKPGKAPKLLIYAASSLQSGVPSRFSGSGSGTDFTLTISSLQPEDFATYFCLQDNAWPLTFGQGTKVEIKR | pKd | 7.22
optimized anti-E-selectin antibody 1284 (antibody, human IgG1, kappa, V domains shown, effector-null human IgG1, kappa) VH: EVQLVESGGGLVQPGGSLRLSCAASGYAIRSAYMHWVRQAPGKGLEWVARIDPANGNTIYVESVEGRFTISADNAKNSAYLQMNSLRAEDTAVYYCAMDLYSTSEYWGQGTLVTVSS VL: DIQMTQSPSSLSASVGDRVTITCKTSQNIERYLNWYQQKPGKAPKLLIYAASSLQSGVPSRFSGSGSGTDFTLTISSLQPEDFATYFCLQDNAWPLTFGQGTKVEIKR | pKd | 7.19
optimized anti-E-selectin antibody 1282 (antibody, human IgG1, kappa, V domains shown, effector-null human IgG1, kappa) VH: EVQLVESGGGLVQPGGSLRLSCAASGYAIRSAYMHWVRQAPGKGLEWVARIDPANGNTIYVDSVEGRFTISADNAKNSAYLQMNSLRAEDTAVYYCAMDLYSTSEYWGQGTLVTVSS VL: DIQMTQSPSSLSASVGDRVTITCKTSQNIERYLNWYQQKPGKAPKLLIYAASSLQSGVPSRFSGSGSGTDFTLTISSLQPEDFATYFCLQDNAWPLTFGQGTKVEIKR | pKd | 7.15
optimized anti-E-selectin antibody 1444 (antibody, human IgG1, kappa, V domains shown, effector-null human IgG1, kappa) VH: EVQLVESGGGLVQPGGSLRLSCAASGYAIRSAYMHWVRQAPGKGLEWVARIDPANGNTIYVDSVTGRFTISADNAKNSAYLQMNSLRAEDTAVYYCAMDLYSTSEYWGQGTLVTVSS VL: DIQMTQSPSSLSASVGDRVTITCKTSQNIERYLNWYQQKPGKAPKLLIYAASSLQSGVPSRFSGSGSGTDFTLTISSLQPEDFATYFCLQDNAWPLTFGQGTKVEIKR | pKd | 7.21

Origin of the recorded values: patent US20240076386A1
